- target: DabiOBP5 (Dioryctria abietella, UniProt A0A8E6HS34)
- Sequence (A0A8E6HS34 19-139): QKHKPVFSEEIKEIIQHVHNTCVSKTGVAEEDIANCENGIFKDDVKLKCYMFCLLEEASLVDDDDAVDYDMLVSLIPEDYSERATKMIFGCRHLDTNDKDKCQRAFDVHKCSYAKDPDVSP
- method summary: Competitive fluorescence binding assay with 1-NPN probe, recombinant DabiOBP5
- setup conditions: read-out: OBP5 Ki (dissociation constant); competitive displacement of 1-NPN; three replicates; mean ± SE; listed as chlorfenapyr
pKi: −log10 of the molar value.
quantity measured: pKi

Could you tell me which pKi is on file for CCOCn1c(-c2ccc(Cl)cc2)c(C#N)c(Br)c1C(F)(F)F ?
> 4.89
